FYI, the data here is from patent US6872745B2.

System: H1-HeLa cells
Experiment: Cytotoxicity in mock-infected cells of the antirhinoviral assay (XTT)
Type: cell-based
Run Parameters: table line HRV-87
// CC50 lookup, one value per entry

{"Molecule": "C#CC[C@H](CC(=O)c1ccc(-c2ccccc2Cl)[nH]1)C(=O)N[C@H](/C=C/C(=O)OCC)C[C@@H]1CCNC1=O [Compound 38]", "Val": "> 10 µM"}

Exercise: Identify measured CC50 corresponding to C#CC[C@H](CC(=O)c1ccc(-c2ccccc2C)[nH]1)C(=O)N[C@H](/C=C/C(=O)OCC)C[C@@H]1CCNC1=O [Compound 39]
Key: > 10 µM

###

// pEC50 lookup, one value per entry
System: HRV-10
Experiment: Antirhinoviral H1-HeLa cell culture assay (XTT cell protection)
Format: cell-based
Run Parameters: Human rhinovirus sp., HRV10; HRV-10, H1-HeLa cells
// pEC50 here means minus log10 of the molar concentration (mol/L)

Exercise: Identify measured pEC50 corresponding to CCOC(=O)/C=C/[C@H](C[C@@H]1CCNC1=O)NC(=O)[C@H](Cc1ccccc1)NC(=O)c1ccc(-c2ccccc2C(F)(F)F)[nH]1
Key: 7.18

Exercise: Identify measured pEC50 corresponding to C#CC[C@H](CC(=O)c1ccc(-c2ccccc2C)[nH]1)C(=O)N[C@H](/C=C/C(=O)OCC)C[C@@H]1CCNC1=O
Key: 6.37

Exercise: Identify measured pEC50 corresponding to C#CC[C@H](CC(=O)c1ccc(-c2ccccc2C(F)(F)F)[nH]1)C(=O)N[C@H](/C=C/C(=O)OCC)C[C@@H]1CCNC1=O
Key: 6.48

Exercise: Identify measured pEC50 corresponding to CCOC(=O)/C=C/[C@H](C[C@@H]1CCNC1=O)NC(=O)[C@H](Cc1ccccc1)NC(=O)c1ccc(-c2cccc3ccccc23)[nH]1
Key: 6.83

###

Tested On: rhinovirus 3C protease, serotype 14 (Human rhinovirus 14)
Construct: Recombinant rhinovirus 3C proteases; made in house
Sequence (P03303 1538-1719): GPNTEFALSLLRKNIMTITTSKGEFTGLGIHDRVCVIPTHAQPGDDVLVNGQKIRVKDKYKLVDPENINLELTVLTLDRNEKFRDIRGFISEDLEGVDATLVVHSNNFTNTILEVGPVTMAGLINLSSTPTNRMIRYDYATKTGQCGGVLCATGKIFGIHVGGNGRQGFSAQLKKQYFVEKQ
Experiment: Inhibition of rhinovirus 3C protease (FRET assay, enzyme start)
Assay type: biochemical
Run Parameters: HRV-14 3C protease, progress curves, read-out: Kobs/I
Okay, here is how we bin by kinact/KI: class 0 = under 4000 M⁻¹ s⁻¹, class 1 = from 4000 M⁻¹ s⁻¹ up to 10000 M⁻¹ s⁻¹, class 2 = 10000 M⁻¹ s⁻¹ and over

{"Compound": "CCOC(=O)/C=C/[C@H](CCC(N)=O)NC(=O)[C@H](Cc1ccccc1)NC(=O)c1ccc(-c2ccccc2OC)[nH]1 [Compound 11]", "Class Name": "class 1"}
{"Compound": "CCCC[C@H](NC(=O)c1ccc(-c2ccccc2C(F)(F)F)[nH]1)C(=O)N[C@H](/C=C/C(=O)OCC)CCC(N)=O [Compound 19]", "Class Name": "class 1"}
{"Compound": "CCOC(=O)/C=C/[C@H](CCC(N)=O)NC(=O)[C@H](Cc1ccccc1)NC(=O)c1ccc(-c2ccncc2)[nH]1 [Compound 15]", "Class Name": "class 0"}
{"Compound": "CCOC(=O)/C=C/[C@H](CCC(N)=O)NC(=O)CNC(=O)c1ccc(-c2ccccc2C(F)(F)F)[nH]1 [Compound 20]", "Class Name": "class 0"}
{"Compound": "CCOC(=O)/C=C/[C@H](CCC(N)=O)NC(=O)[C@H](Cc1ccccc1)NC(=O)c1ccc(CCC(F)(F)F)[nH]1 [Compound 22]", "Class Name": "class 1"}

Exercise: Input CCOC(=O)/C=C/[C@H](CCC(N)=O)NC(=O)[C@H](Cc1ccccc1)N(C)C(=O)c1ccc(-c2ccccc2C(F)(F)F)[nH]1 [Compound 41] ; output its category
Key: class 2

Exercise: Input O=C1OCC/C1=C\[C@H](C[C@@H]1CCNC1=O)NC(=O)[C@H](Cc1ccc(F)cc1)NC(=O)c1ccc(-c2ccccc2)[nH]1 [Compound 27] ; output its category
Key: class 2

Exercise: Input CCOC(=O)/C=C/[C@H](C[C@@H]1CCNC1=O)NC(=O)[C@H](Cc1ccccc1)NC(=O)c1ccc(-c2ccccc2C(F)(F)F)[nH]1 [Compound 28] ; output its category
Key: class 2

Exercise: Input CCOC(=O)/C=C/[C@H](CCC(N)=O)NC(=O)[C@H](Cc1ccccc1)NC(=O)c1ccc(-c2ccccc2C(F)(F)F)[nH]1 [Compound 2] ; output its category
Key: class 2

Exercise: Input O=C1OCC/C1=C\[C@H](C[C@@H]1CCNC1=O)NC(=O)[C@H](CC(=O)c1ccc(-c2cccc3ccccc23)[nH]1)Cc1ccc(F)cc1 [Compound 32] ; output its category
Key: class 1

Exercise: Input O=C1OCC/C1=C\[C@H](C[C@@H]1CCNC1=O)NC(=O)C(CC(=O)c1ccc(-c2ccccc2)[nH]1)Cc1ccc(F)cc1 (stereo partly drawn) [Compound 31] ; output its category
Key: class 0

Exercise: Input C#CC[C@H](NC(=O)c1ccc(-c2ccccc2C(F)(F)F)[nH]1)C(=O)N[C@H](/C=C/C(=O)OCC)C[C@@H]1CCNC1=O [Compound 29] ; output its category
Key: class 2
